assay: Toxicity after oral or intravenous administration, rats; type: in vivo; conditions: rat, in vivo, oral administration, suspended in 0.5% methyl cellulose, read-out: LD₅₀

{"compound-smiles": "CCCCCCCCCCCCCCCCCCOC1=C(O)[C@@H]([C@@H](O)CO)OC1=O.[Li]", "LD50": "≥ 2000 mg/kg"}

----------
assay: Toxicity after oral or intravenous administration, mice; assay type: in vivo; conditions: mouse, in vivo, oral administration, suspended in 0.5% methyl cellulose, read-out: LD₅₀

{"compound": "CCCCCCCCCCCCCCCCCCOC1=C(O)[C@@H]([C@@H](O)CO)OC1=O.[Li] [2-O-octadecylascorbic acid lithium]", "LD50": "≥ 2000 mg/kg"}

Values from patent EP0619313A1
